Data origin, for the record: paper PMC3655773

- Particulars: rat, microsomes
Experimental Readout: T1/2 (min)

Consider the reported T1/2 for these compounds:
{"columns": ["Compound", "T1/2, min"],
 "data": [
  ["Cc1c(COC(=O)CCC(=O)O)c(=O)oc2c3c(ccc12)OC(C)(C)[C@H](OC(=O)[C@@]12CC[C@@](C)(C(=O)O1)C2(C)C)[C@@H]3OC(=O)[C@@]12CC[C@@](C)(C(=O)O1)C2(C)C (relative stereo) [Compound 6]", 35.27],
  ["Cc1c(COC(=O)CCC(=O)O)c(=O)oc2c3c(ccc12)OC(C)(C)[C@H](OC(=O)[C@@]12CC[C@@](C)(C(=O)O1)C2(C)C)[C@@H]3OC(=O)[C@@]12CC[C@@](C)(C(=O)O1)C2(C)C (relative stereo) [Compound 8]", 25.93]
]}

[1] Cc1c(COC(=O)CN)c(=O)oc2c3c(ccc12)OC(C)(C)[C@H](OC(=O)[C@@]12CCC(C)(C(=O)O1)C2(C)C)[C@@H]3OC(=O)[C@@]12CCC(C)(C(=O)O1)C2(C)C.Cl (relative stereo)
[2] Cc1c(COC(=O)C(C)N)c(=O)oc2c3c(ccc12)OC(C)(C)[C@H](OC(=O)[C@@]12CCC(C)(C(=O)O1)C2(C)C)[C@@H]3OC(=O)[C@@]12CCC(C)(C(=O)O1)C2(C)C (relative stereo)
[3] Cc1c(COC(=O)CN)c(=O)oc2c3c(ccc12)OC(C)(C)[C@H](OC(=O)[C@@]12CCC(C)(C(=O)O1)C2(C)C)[C@@H]3OC(=O)[C@@]12CCC(C)(C(=O)O1)C2(C)C (relative stereo)
Inquiry: Arrange by T1/2, high to low. Answer by naming the labels in the order asked.
Reply text: 2, 1, 3

---

- Particulars: rat, microsomes
Experimental Readout: CLint (µL/min/mg)

Solved cases below.
{"columns": ["Compound", "Unit Of Measure", "CLint"],
 "data": [
  ["Cc1c(COC(=O)CN)c(=O)oc2c3c(ccc12)OC(C)(C)[C@H](OC(=O)[C@@]12CCC(C)(C(=O)O1)C2(C)C)[C@@H]3OC(=O)[C@@]12CCC(C)(C(=O)O1)C2(C)C.Cl (relative stereo)", "µL/min/mg", 260],
  ["Cc1c(COC(=O)CCC(=O)O)c(=O)oc2c3c(ccc12)OC(C)(C)[C@H](OC(=O)[C@@]12CC[C@@](C)(C(=O)O1)C2(C)C)[C@@H]3OC(=O)[C@@]12CC[C@@](C)(C(=O)O1)C2(C)C (relative stereo) [Compound 8]", "µL/min/mg", 270]
]}

[P] Cc1c(COC(=O)CCC(=O)O)c(=O)oc2c3c(ccc12)OC(C)(C)[C@H](OC(=O)[C@@]12CC[C@@](C)(C(=O)O1)C2(C)C)[C@@H]3OC(=O)[C@@]12CC[C@@](C)(C(=O)O1)C2(C)C (relative stereo) [Compound 6]
[Q] Cc1c(COC(=O)CN)c(=O)oc2c3c(ccc12)OC(C)(C)[C@H](OC(=O)[C@@]12CCC(C)(C(=O)O1)C2(C)C)[C@@H]3OC(=O)[C@@]12CCC(C)(C(=O)O1)C2(C)C (relative stereo)
[R] Cc1c(COC(=O)C(C)N)c(=O)oc2c3c(ccc12)OC(C)(C)[C@H](OC(=O)[C@@]12CCC(C)(C(=O)O1)C2(C)C)[C@@H]3OC(=O)[C@@]12CCC(C)(C(=O)O1)C2(C)C (relative stereo)
Inquiry: Rank items: key CLint, increasing. Could you list the labels in the order requested?
Reply text: R, P, Q
